- Tested system: NR1/NR2B (Homo sapiens (Human), UniProt Q05586+Q13224)
- Sequence (Q13224 27-1484, other chains not shown): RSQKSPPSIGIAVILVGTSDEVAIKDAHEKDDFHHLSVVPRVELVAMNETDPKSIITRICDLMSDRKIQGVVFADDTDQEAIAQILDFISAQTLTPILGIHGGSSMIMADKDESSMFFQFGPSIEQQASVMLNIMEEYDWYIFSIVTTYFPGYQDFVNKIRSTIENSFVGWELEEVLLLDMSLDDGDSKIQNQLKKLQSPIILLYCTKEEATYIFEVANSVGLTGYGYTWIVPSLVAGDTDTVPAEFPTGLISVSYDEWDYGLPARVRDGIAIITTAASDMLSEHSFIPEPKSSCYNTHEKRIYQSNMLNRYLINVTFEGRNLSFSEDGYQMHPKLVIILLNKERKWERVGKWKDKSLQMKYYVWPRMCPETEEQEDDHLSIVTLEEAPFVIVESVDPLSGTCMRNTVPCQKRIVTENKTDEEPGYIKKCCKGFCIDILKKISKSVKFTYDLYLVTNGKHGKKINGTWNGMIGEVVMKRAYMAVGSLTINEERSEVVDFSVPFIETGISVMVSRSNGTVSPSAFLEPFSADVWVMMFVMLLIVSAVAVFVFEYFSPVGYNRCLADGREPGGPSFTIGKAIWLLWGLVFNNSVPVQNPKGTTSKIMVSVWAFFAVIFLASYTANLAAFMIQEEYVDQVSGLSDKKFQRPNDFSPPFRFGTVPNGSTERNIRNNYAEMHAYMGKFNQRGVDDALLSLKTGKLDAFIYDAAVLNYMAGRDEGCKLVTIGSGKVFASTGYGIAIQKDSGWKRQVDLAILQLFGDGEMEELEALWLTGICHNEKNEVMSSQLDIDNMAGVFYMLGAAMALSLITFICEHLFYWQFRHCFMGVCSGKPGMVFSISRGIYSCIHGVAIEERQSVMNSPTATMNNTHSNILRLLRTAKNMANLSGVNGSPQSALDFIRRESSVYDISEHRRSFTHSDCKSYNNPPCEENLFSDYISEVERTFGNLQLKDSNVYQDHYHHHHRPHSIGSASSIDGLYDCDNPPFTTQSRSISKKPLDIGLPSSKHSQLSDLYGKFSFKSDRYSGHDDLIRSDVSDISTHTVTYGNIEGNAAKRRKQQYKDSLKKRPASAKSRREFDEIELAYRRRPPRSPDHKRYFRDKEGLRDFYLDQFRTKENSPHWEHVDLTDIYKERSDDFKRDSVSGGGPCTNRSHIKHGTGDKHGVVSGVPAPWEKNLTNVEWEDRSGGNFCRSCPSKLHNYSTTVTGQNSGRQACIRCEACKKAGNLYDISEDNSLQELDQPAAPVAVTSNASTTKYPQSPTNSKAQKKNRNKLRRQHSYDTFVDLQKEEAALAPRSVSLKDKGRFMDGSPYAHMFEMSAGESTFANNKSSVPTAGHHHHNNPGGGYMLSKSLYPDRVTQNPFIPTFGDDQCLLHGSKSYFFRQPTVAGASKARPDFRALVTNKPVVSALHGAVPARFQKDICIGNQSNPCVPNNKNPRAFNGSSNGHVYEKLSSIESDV
- Procedure details: Cell assay: FDSS Ca2+ influx inhibition in HEK293 cells expressing NR1/NR2B;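 note: Fluo-8 Ca2+ signal read on Hamamatsu FDSS 6000 after glutamate, glycine and Ca2+ challenge following 10 min compound preincubation, end/baseline fluorescence ratio compared with MK801 control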
- Experimental setup: NR2B NAM IC50, HEK293 cells expressing NR1/NR2B, Ca2+ influx
pIC50: −log10 of the molar value.
# key: entry, value: pIC50

Previously resolved entries follow.
Oc1cnc(C(O)CN2C[C@@H]3C[C@@](O)(Cc4ccccc4)C[C@@H]3C2)cn1 (mixture of isomers) :: ≤ 5.00
COc1cccc([C@]2(O)C[C@H]3CN(CC(O)c4ccccc4)C[C@H]3C2)c1 (mixture of isomers) :: ≤ 5.00

Next up:
Problem: Fill in the recorded pIC50 for this compound, with NR1/NR2B (Homo sapiens (Human), UniProt Q05586+Q13224) as test system: Cc1ccccc1[C@]1(O)C[C@H]2CN(C(C)C(=O)c3ccc(O)cc3)C[C@H]2C1 (mixture of isomers)
Result: ≤ 5.00

meta.source: patent US10052306B2
